tested.on: Heparin Cofactor 2 (HC2/SERPIND1) (Homo sapiens)
Sequence (P05546 20-499): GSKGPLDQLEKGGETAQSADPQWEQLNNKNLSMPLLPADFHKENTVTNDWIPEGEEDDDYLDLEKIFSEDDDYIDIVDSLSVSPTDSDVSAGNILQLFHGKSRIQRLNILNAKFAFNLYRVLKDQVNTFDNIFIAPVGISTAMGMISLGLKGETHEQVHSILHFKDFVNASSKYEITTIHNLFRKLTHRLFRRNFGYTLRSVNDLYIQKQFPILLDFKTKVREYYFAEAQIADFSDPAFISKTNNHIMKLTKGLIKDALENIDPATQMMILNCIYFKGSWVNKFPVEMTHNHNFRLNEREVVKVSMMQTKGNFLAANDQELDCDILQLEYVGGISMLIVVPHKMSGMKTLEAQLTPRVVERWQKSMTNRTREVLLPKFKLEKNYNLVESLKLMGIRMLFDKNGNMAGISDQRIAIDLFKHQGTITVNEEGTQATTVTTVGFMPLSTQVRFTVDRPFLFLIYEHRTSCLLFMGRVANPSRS
protocol: SERPIN inhibition selectivity, similar enzymatic method
measurement.parameters: Ser protease: Thrombin
Description: Inhibitory effect of IMD-4690 on the activity of PAI-1 was measured by the direct tPA assay. Briefly, recombinant tPA and PAI-1 was mixed with IMD-4690, and then tPA substrate with fluorescent pigment (Pyr-Gly-Arg-MCA) was added in this mixture and incubated. The enzymatic activity was calculated by measuring the fluorescence. The inhibitory activity of IMD-4690 on other enzymes was measured with the similar method.

- structure.string: "CC(C)(C)c1ccc(Oc2cc(-c3ccc(OC(F)(F)F)cc3)ccc2OCC(=O)O)cc1"
  IC50: "> 25 µM"

---

tested.on: α1-anti-chymotrypsin (SERPINA3) (Homo sapiens)
Sequence (P01011 24-423): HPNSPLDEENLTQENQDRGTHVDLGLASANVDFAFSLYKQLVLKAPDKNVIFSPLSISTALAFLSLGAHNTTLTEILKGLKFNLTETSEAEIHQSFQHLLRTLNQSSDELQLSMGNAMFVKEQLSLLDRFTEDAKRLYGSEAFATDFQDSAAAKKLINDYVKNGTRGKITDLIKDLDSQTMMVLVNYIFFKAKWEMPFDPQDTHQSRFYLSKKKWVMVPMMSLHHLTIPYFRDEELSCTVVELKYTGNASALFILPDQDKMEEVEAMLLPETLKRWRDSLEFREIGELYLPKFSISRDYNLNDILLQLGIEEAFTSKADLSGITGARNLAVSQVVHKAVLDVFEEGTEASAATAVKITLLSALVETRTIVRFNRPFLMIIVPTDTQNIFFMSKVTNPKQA

- structure.string: "CC(C)(C)c1ccc(Oc2cc(-c3ccc(OC(F)(F)F)cc3)ccc2OCC(=O)O)cc1"
  IC50: "> 25 µM"

---

tested.on: human PAI-1 (Homo sapiens)
Sequence (P05121 24-402): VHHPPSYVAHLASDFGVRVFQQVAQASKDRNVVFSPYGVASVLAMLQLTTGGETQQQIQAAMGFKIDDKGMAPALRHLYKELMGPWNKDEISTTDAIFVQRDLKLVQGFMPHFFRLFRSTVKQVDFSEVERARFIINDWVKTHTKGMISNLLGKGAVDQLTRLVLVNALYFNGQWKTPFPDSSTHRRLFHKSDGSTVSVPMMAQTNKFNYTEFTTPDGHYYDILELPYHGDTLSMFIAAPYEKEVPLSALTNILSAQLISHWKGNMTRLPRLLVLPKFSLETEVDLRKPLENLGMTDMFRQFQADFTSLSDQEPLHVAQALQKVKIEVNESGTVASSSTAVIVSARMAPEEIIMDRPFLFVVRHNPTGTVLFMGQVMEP
protocol: Direct tPA assay of PAI-1 activity (fluorescent substrate Pyr-Gly-Arg-MCA)
measurement.parameters: recombinant tPA and PAI-1, read-out: IC50 of human PAI-1 inhibition
result.type: IC50

- compound: "CC(C)(C)c1ccc(Oc2cc(-c3ccc(OC(F)(F)F)cc3)ccc2OCC(=O)O)cc1 [IMD-4690]"
  result.type: "IC50"
  reported.value: "1100 nM"

---

tested.on: PAI-3 (Protein C inhibitor/SERPINA5) (Homo sapiens)
Sequence (P05154 26-406): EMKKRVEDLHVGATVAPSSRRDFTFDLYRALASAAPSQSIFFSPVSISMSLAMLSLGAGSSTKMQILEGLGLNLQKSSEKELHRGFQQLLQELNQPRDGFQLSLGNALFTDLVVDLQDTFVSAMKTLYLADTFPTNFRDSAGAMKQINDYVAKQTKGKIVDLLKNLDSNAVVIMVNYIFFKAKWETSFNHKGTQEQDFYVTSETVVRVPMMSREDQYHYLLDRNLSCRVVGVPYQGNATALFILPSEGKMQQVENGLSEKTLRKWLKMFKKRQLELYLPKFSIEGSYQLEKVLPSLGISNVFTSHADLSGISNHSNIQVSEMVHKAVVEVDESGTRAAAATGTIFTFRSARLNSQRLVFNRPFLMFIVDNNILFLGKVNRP
protocol: SERPIN inhibition selectivity, similar enzymatic method
measurement.parameters: Ser protease: uPA
pIC50: −log10 of the molar value.

- molecule: "CC(C)(C)c1ccc(Oc2cc(-c3ccc(OC(F)(F)F)cc3)ccc2OCC(=O)O)cc1 [IMD-4690]"
  pIC50: "< 4.60"

---

tested.on: PAI-2 (SERPINB2) (Homo sapiens, UniProt P05120)
Sequence (P05120 whole entry): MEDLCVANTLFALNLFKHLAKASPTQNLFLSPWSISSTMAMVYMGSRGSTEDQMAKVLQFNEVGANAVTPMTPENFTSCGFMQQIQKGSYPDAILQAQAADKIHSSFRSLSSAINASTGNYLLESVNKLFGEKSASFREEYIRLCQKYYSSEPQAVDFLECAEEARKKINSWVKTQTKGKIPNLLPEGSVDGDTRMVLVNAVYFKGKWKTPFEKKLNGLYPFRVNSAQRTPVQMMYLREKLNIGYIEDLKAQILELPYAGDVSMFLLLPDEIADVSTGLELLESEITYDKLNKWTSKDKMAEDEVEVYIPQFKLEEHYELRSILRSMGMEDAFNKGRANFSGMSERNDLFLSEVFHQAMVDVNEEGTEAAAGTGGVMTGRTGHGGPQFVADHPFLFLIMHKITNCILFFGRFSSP
pIC50: −log10 of the molar value.

- structure.string: "CC(C)(C)c1ccc(Oc2cc(-c3ccc(OC(F)(F)F)cc3)ccc2OCC(=O)O)cc1"
  pIC50: "< 4.60"

---

tested.on: binding of tPA and PAI-1 (Homo sapiens, UniProt P05121)
Sequence (P05121 24-402): as the sequence (P05121 24-402) above
protocol: Inhibition of tPA/PAI-1 complex formation (SDS-PAGE, silver staining, densitometry)
measurement.parameters: recombinant PAI-1 + IMD-4690 in PBS 37°C 5 min, then tPA 37°C 5 min; tPA/PAI-1 complex band densitometry
Description: Fig 1 Schedule of in vivo experiments and biological activity of IMD-4690. (A) Protocols for the mouse experiments. (B) Inhibitory effects of IMD-4690 on the binding of tPA and PAI-1. The recombinant PAI-1 and IMD-4690 were mixed and incubated in PBS at 37°C for 5 min. Then tPA was added. After incubation at 37°C for 5 min, samples were applied for 10% SDS-PAGE and visualized with a silver staining. The bands of tPA/PAI-1 complex were quantified by a densitometry, and calculated IC50. […]
result.type: IC50 (µM)

- molecule: "CC(C)(C)c1ccc(Oc2cc(-c3ccc(OC(F)(F)F)cc3)ccc2OCC(=O)O)cc1 [IMD-4690]"
  result.type: "IC50"
  reported.value: 8
